# growth annotations
- Test system: NCI-H522 lung
- procedure-details: NCI-60 one-dose screen, 48 h (100 = growth as untreated, 0 = no growth, -100 = all killed)
- setup-conditions: 10 µM unless noted
Compounds without any hit were thinned out: in the full panel of roughly 83,000, 20% have a hit.
# unit: % | format: bare number

Dear colleague, please send me the reported growth for "COC(=O)[C@H](Cc1ccccc1)NC(=O)c1csc([C@@H](C[C@H](C(C)C)N(C)C(=O)[C@@H](NC(=O)[C@H]2CCCN2C)C2CC2)OC(C)=O)n1" when you can.
0.953

Dear colleague, please send me the reported growth for "CCC(C)(C)[C@H](NC(=O)[C@H]1CCCCN1C)C(=O)N(C)[C@H](C[C@@H](OC(C)=O)c1nc(C(=O)N[C@@H](Cc2ccccc2)C[C@H](C)C(=O)O)cs1)C(C)C" when you can.
-32.1

Dear colleague, please send me the reported growth for "COc1ccc(/C=C\c2cc(OC)c(OC)c(OC)c2)cc1NC(=O)/C=C/c1cc(OC)c(OC)c(OC)c1" when you can.
34.3

Dear colleague, please send me the reported growth for CN[C@@]1(c2ccccc2Cl)CCCC[C@@H]1NCC1CCCO1 (some centres undefined) when you can.
91.3
